Reference source: ChEMBL document CHEMBL3091318

- System: Enterococcus faecalis
- Assay Method Text: Antimicrobial activity Enterococcus faecalis ATCC 29212 after 16 to 20 hrs by broth microdilution method
- Format: functional
Experimental Readout: MIC (µg/mL)
Please respond with the number in µg/mL and leave the unit unwritten.

Exercise: # MIC lookup, item N/C(=N\O)c1ccc2cc(-c3ccc(-c4cc5ccc(/C(N)=N\O)cc5[nH]4)cc3)[nH]c2c1
Key: 2.5

Exercise: # MIC lookup, item O=C(O)c1cn(C2CC2)c2cc(N3CCNCC3)c(F)cc2c1=O [CIPROFLOXACIN]
Key: 1.25

Exercise: # MIC lookup, item O=C(O)C(F)(F)F.c1cc2cc(CCc3cc4ccc(C5=NCCCN5)cc4[nH]3)[nH]c2cc1C1=NCCCN1
Key: 5

###

- System: Pseudomonas aeruginosa
- Assay Method Text: Antimicrobial activity against efflux pump mexAB-oprM-deficient Pseudomonas aeruginosa PAO1 after 16 to 20 hrs by broth microdilution method
- Assay type: functional
Experimental Readout: MIC (µg/mL)
Please respond with the number in µg/mL and leave the unit unwritten.

Exercise: # MIC lookup, item CC(=O)O.c1cc2cc(-c3ccc(-c4cc5ccc(C6=NCCCN6)cc5[nH]4)s3)[nH]c2cc1C1=NCCCN1
Key: 1.25

Exercise: # MIC lookup, item CC1(C)CN=C(c2ccc3cc(-c4ccc(-c5cc6ccc(C7=NCC(C)(C)CN7)cc6[nH]5)cc4)[nH]c3c2)NC1.O=C(O)C(F)(F)F
Key: 40

Exercise: # MIC lookup, item O=C(O)C(F)(F)F.c1cc2cc(-c3ccc(-c4cc5ccc(C6=NCCN6)cc5[nH]4)s3)[nH]c2cc1C1=NCCN1
Key: 1.25

###

- Tested on: Pseudomonas aeruginosa
- Assay Method Text: Antimicrobial activity against efflux pump mexAB-oprM-deficient Pseudomonas aeruginosa PAO1 after 16 to 20 hrs by broth microdilution method
- Format: functional
Experimental Readout: MIC

Exercise: # MIC lookup, item c1cc2cc(CCCc3cc4ccc(C5=NCCCN5)cc4[nH]3)[nH]c2cc1C1=NCCCN1
Key: > 80 µg/mL

Exercise: # MIC lookup, item O=C(O)c1cn(C2CC2)c2cc(N3CCNCC3)c(F)cc2c1=O
Key: ≤ 0.02 µg/mL

Exercise: # MIC lookup, item NC(=O)c1ccc2cc(-c3ccc(-c4cc5ccc(C(N)=O)cc5[nH]4)cc3)[nH]c2c1
Key: > 80 µg/mL

Exercise: # MIC lookup, item CC(=O)O.c1cc2cc(-c3cnc(-c4cc5ccc(C6=NCCN6)cc5[nH]4)cn3)[nH]c2cc1C1=NCCN1
Key: > 80 µg/mL
